# target or system: human TYK2 (JH2domain-pseudokinase) (Homo sapiens (Human), UniProt P29597)
# Sequence (P29597 556-888): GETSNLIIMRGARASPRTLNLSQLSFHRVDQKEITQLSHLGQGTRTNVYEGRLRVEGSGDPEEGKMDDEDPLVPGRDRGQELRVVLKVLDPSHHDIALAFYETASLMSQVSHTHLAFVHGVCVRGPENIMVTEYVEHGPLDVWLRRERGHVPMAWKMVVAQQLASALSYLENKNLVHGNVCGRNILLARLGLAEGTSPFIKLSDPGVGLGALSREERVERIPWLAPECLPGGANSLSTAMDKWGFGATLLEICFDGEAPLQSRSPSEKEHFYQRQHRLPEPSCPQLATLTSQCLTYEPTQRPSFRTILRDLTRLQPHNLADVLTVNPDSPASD
# assay summary: TYK2 JH2 Domain Binding Assay (KINOMEscan)
measured attribute: Kd

// field: Kd; key: "CNc1cc(Nc2cccn([C@H]3C[C@@H]3F)c2=O)nc2c(C(=O)NCC(C)(C)CO)cnn12" ; value = < 0.2 nM

// field: Kd; key: "CNc1cc(Nc2cccn(-c3ccccn3)c2=O)nc2c(C(=O)NC[C@@H](C)CO)cnn12" ; value = 0.2 to 1 nM

// field: Kd; key: CNc1cc(Nc2cccn([C@H]3C[C@@H]3OC)c2=O)nc2c(C(=O)N[C@H]3CC[C@@H]3OC)cnn12 [I-1187] ; value = < 0.2 nM

====

Listing: pIC50 of selected compounds
# target or system: Tyk2/JAK2 (heterodimeric complex) (Homo sapiens (Human), UniProt P29597)
# Sequence (P29597 whole entry, other chains not shown): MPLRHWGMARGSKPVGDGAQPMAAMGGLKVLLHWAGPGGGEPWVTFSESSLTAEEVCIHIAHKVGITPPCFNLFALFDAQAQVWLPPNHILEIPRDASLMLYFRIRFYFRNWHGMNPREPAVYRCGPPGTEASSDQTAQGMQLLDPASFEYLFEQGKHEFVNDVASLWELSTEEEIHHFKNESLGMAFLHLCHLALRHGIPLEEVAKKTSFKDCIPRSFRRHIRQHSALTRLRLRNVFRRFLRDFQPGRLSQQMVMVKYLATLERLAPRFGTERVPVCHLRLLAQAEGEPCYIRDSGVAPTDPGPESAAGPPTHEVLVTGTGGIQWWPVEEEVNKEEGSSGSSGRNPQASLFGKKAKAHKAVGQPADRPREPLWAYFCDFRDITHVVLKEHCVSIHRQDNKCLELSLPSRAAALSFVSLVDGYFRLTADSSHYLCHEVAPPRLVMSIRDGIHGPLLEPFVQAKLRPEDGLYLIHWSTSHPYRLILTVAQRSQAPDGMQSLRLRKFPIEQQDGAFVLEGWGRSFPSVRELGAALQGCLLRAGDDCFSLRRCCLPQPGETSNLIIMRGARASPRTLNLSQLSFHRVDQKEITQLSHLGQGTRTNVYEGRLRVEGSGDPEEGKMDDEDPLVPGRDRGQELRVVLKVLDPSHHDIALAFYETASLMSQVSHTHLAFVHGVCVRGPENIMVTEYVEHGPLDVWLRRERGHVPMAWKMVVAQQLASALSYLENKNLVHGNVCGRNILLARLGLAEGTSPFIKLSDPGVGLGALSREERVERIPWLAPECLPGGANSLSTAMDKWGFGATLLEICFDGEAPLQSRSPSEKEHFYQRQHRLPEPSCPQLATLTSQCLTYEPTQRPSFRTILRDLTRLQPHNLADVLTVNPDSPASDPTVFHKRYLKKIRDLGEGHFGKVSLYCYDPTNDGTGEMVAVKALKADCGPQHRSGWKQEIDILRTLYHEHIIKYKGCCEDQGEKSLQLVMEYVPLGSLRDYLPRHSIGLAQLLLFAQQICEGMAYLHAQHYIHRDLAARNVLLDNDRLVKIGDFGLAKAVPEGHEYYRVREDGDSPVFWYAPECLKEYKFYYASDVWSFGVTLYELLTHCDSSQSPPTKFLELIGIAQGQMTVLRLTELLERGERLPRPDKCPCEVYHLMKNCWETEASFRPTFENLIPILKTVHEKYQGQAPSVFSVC
# assay summary: IL-12 Induced pSTAT4 in Human PBMC
# details: 1.7 ng/mL IL-12
pIC50: −log10 of the molar value.

// field: pIC50; key: "[2H]C([2H])([2H])Oc1ncccc1Nc1cc(NC)n2ncc(C(=O)NC3CCC3)c2n1" ; value = > 7.00

// field: pIC50; key: "CNc1cc(Nc2cccn([C@H]3CC[C@@](C)(OC)CC3)c2=O)nc2c(C(=O)N[C@H]3C[C@H]3F)cnn12" ; value = > 7.00

// field: pIC50; key: "[2H]C([2H])([2H])Oc1ncccc1Nc1cc(NC)n2ncc(C(=O)NCC(C)(C)CO)c2n1" ; value = > 7.00

// field: pIC50; key: "CNc1cc(Nc2cccn(-c3cccc(C)n3)c2=O)nc2c(C(=O)N[C@H]3C[C@H]3F)cnn12" ; value = > 7.00

// field: pIC50; key: "CNc1cc(Nc2cc(Cl)cn([C@@H]3CCCN(C)C3)c2=O)nc2c(C(=O)NC3CC3)cnn12" ; value = > 7.00

====

Listing: pKd of selected compounds
# target or system: human TYK2 (JH2domain-pseudokinase) (Homo sapiens (Human), UniProt P29597)
# assay summary: TYK2 JH2 Domain Binding Assay (KINOMEscan)
pKd: −log10 of the molar value.

Look over these answered cases.
compound	pKd
CNc1cc(Nc2cccc(N3CCC34COC4)n2)nc2c(C(=O)NC3CC3)cnn12	> 9.70
CNc1cc(Nc2cccn([C@@H]3C[C@H]3F)c2=O)nc2c(C(=O)N[C@@H]3CC[C@H](O)C3)cnn12	> 9.70
CNc1cc(Nc2cccnc2OC)nc2c(C(=O)N[C@@H]3CC[C@@H]3O)cnn12	9.00 to 9.70

The compound "CNc1cc(Nc2cccn(-c3cc(C)nn3C)c2=O)nc2c(C(=O)NC3CCC3)cnn12" , when measured on human TYK2 (JH2domain-pseudokinase) (Homo sapiens (Human), UniProt P29597), yielded pKd of 9.00 to 9.70

The compound "NC(=O)c1cnn2c(N)cc(Nc3ccnn(-c4ccc(F)cc4)c3=O)nc12" , when measured on human TYK2 (JH2domain-pseudokinase) (Homo sapiens (Human), UniProt P29597), yielded pKd of 8.00 to 9.00

The compound "[2H]C([2H])([2H])Oc1ncccc1Nc1cc(NC)n2ncc(C(=O)N[C@H]3C[C@H]3F)c2n1" , when measured on human TYK2 (JH2domain-pseudokinase) (Homo sapiens (Human), UniProt P29597), yielded pKd of > 9.70

The compound CNc1cc(Nc2cccc3ocnc23)nc2c(C(=O)N[C@@H]3CC[C@H]3O)cnn12 (racemic) , when measured on human TYK2 (JH2domain-pseudokinase) (Homo sapiens (Human), UniProt P29597), yielded pKd of > 9.70

The compound CNc1cc(Nc2cccnc2OC2CC2)nc2c(C(=O)NCC(C)CO)cnn12 (centres unmarked) , when measured on human TYK2 (JH2domain-pseudokinase) (Homo sapiens (Human), UniProt P29597), yielded pKd of > 9.70

The compound "CNc1cc(Nc2cc(Cl)cn(-c3ccnc(C)n3)c2=O)nc2c(C(=O)NC3CC3)cnn12" , when measured on human TYK2 (JH2domain-pseudokinase) (Homo sapiens (Human), UniProt P29597), yielded pKd of > 9.70

The compound "CNc1cc(Nc2cccc([C@H]3CCCOC3)n2)nc2c(C(=O)NC3CC3)cnn12" , when measured on human TYK2 (JH2domain-pseudokinase) (Homo sapiens (Human), UniProt P29597), yielded pKd of > 9.70

====

Listing: IC50 of selected molecules
# target or system: JAK2/JAK2 homdimeric complex (Homo sapiens (Human), UniProt O60674)
# Sequence (O60674 whole entry): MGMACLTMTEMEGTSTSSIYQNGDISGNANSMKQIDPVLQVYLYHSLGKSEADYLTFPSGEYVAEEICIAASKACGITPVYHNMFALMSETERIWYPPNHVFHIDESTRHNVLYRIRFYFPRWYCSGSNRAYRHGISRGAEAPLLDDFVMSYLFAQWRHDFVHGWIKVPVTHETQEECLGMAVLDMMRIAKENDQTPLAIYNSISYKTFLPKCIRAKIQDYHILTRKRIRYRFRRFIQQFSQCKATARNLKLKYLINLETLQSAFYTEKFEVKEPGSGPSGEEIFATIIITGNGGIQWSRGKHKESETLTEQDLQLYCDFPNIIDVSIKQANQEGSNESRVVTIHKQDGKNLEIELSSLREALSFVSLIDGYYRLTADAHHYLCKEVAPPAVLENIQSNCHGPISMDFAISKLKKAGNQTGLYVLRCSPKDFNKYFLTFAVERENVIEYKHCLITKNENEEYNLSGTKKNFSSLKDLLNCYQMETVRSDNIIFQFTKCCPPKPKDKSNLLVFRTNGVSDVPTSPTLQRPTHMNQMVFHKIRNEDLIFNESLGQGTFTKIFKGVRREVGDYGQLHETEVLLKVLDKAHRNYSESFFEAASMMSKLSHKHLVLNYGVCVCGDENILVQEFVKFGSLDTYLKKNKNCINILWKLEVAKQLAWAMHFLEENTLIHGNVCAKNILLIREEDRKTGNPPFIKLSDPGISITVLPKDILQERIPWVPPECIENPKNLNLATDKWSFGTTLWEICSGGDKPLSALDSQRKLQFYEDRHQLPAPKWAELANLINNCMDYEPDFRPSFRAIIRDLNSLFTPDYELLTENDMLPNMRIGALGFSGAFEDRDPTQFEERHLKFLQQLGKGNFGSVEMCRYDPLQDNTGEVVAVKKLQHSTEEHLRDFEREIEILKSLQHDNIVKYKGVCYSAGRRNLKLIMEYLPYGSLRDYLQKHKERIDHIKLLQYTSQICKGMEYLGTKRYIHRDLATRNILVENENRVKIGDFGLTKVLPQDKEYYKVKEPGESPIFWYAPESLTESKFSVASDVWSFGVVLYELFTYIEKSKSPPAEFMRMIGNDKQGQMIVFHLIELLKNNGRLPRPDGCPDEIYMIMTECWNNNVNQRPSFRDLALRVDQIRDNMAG
# Sequence (P32927 17-897 partner): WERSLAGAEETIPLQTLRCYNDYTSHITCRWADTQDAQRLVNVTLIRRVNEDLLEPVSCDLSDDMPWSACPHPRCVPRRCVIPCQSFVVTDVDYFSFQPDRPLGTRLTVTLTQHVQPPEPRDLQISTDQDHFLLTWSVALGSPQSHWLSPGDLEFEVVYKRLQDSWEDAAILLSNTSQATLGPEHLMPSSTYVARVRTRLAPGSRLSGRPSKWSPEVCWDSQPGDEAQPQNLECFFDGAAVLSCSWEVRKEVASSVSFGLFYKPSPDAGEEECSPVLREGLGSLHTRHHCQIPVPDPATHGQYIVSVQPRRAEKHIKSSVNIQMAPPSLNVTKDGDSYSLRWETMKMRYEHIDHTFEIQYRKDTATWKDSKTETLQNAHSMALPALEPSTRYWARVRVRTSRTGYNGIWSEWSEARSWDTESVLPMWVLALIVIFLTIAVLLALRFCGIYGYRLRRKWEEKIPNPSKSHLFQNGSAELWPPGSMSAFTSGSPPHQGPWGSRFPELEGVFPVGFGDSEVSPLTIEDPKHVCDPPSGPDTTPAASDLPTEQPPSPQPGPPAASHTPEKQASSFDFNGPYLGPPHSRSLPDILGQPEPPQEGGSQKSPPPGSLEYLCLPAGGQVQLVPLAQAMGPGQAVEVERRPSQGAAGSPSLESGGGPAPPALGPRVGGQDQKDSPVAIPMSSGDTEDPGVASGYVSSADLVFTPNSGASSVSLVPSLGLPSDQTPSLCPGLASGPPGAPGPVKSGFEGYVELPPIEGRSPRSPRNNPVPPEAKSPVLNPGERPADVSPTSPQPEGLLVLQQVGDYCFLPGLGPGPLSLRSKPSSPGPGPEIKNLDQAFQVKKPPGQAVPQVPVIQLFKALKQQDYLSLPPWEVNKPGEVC
# assay summary: GM-CSF Induced pSTAT5 in Human PBMC
# details: GM-CSF 5 ng/mL for 20 minutes, pSTAT5 by MSD, read-out: PBMC_GMCSF_pSTAT5 IC50

molecule	IC50
CNc1cc(Nc2cc(Cl)cn(C3CCCOC3)c2=O)nc2c(C(=O)NCC(C)(C)CO)cnn12 (stereo not shown)	> 50 µM

// field: IC50; key: "CNc1cc(Nc2cccn([C@H]3CC[C@](C)(OC)CC3)c2=O)nc2c(C(=O)N[C@H]3C[C@H]3F)cnn12" ; value = > 50 µM

// field: IC50; key: "CNc1cc(-c2cn(C(C)C)c3ncccc23)nc2c(C(=O)N[C@H]3C[C@H](O)C3)cnn12" ; value = > 2.5 µM

// field: IC50; key: "CNc1cc(Nc2cccn(C3CCN(CCF)CC3)c2=O)nc2c(C(=O)NCC(C)(C)CO)cnn12" ; value = > 50 µM

// field: IC50; key: "CNc1cc(Nc2cc(Cl)cn([C@H]3CCCN(C)C3)c2=O)nc2c(C(=O)NC3CC3)cnn12" ; value = > 12.5 µM

// field: IC50; key: "CNc1cc(Nc2cccn(-c3cnn(CC4CCOCC4)c3)c2=O)nc2c(C(=O)NC3CC3)cnn12" ; value = > 12.5 µM

// field: IC50; key: "CCOc1ccc(-n2cccc(Nc3cc(NC)n4ncc(C(=O)N[C@H]5C[C@H]5F)c4n3)c2=O)nn1" ; value = > 2.5 µM

// field: IC50; key: "CNc1cc(Nc2cccn(C3CCCCC3)c2=O)nc2c(C(=O)N[C@H]3C[C@H]3F)cnn12" ; value = > 12.5 µM

// field: IC50; key: COc1ncccc1Nc1cc(NCCCN2CCOCC2)n2ncc(C(=O)N[C@@H]3C[C@@H]3F)c2n1 (stereo in doubt) ; value = > 50 µM

====

# target or system: human TYK2 (JH2domain-pseudokinase) (Homo sapiens (Human))
# assay summary: TYK2 JH2 Domain Binding Assay (KINOMEscan)
measured attribute: Kd

compound	Kd
CNc1cc(Nc2cccn(CCOC)c2=O)nc2c(C(=O)NC3CC3)cnn12	< 0.2 nM

// field: Kd; key: "CNc1cc(Nc2cccn(-c3cccc(C)n3)c2=O)nc2c(C(=O)NC3CC3)cnn12" ; value = < 0.2 nM

// field: Kd; key: "CNc1cc(Nc2cccnc2OC2CC2)nc2c(C(=O)NC(C)(C)C#N)cnn12" ; value = < 0.2 nM

// field: Kd; key: CNc1cc(Nc2cccn(-c3ncccc3F)c2=O)nc2c(C(=O)NCC(C)CO)cnn12 (centres unmarked) ; value = < 0.2 nM

// field: Kd; key: CNc1cc(-c2cn(C3CCOCC3)c3ncccc23)nc2c(C(=O)NC3CCC3O)cnn12 (centres unmarked) ; value = < 0.2 nM

// field: Kd; key: "CNc1cc(Nc2cccn(C(C)C)c2=O)nc2c(C(=O)N[C@@H]3CCC[C@@](C)(OC)C3)cnn12" ; value = < 0.2 nM

// field: Kd; key: "CNc1cc(Nc2ccc3c(n2)CCO3)nc2c(C(=O)N[C@H]3C[C@H]3F)cnn12" ; value = < 0.2 nM

// field: Kd; key: "CNc1cc(Nc2cccn([C@H]3CCCOC3)c2=O)nc2c(C(=O)N[C@H]3CC[C@H]3O)cnn12" ; value = < 0.2 nM

// field: Kd; key: CNc1cc(Nc2cccn([C@H]3C[C@@H]3OC)c2=O)nc2c(C(=O)N[C@H]3CC[C@@H]3OC)cnn12 [I-1234] ; value = 0.2 to 1 nM

// field: Kd; key: CNc1cc(Nc2cccc([C@H]3CCCOC3)n2)nc2c(C(=O)N[C@@H]3COC[C@@H]3O)cnn12 [I-634] ; value = < 0.2 nM

// field: Kd; key: "Nc1cc(Nc2cccnc2OC(F)(F)F)nc2c(C(=O)NC3COC3)cnn12" ; value = > 10 nM

// field: Kd; key: "NC(=O)c1cnn2c(N)cc(Nc3cccn(C4CCN(CC(F)F)CC4)c3=O)nc12" ; value = 1 to 10 nM

// field: Kd; key: "CNc1cc(Nc2cccn(-c3cnn(C)c3F)c2=O)nc2c(C(=O)N[C@H]3C[C@H]3F)cnn12" ; value = < 0.2 nM

// field: Kd; key: CNc1cc(-c2cn(C3CCOCC3)c3ncccc23)nc2c(C(=O)N[C@H]3COC[C@H]3O)cnn12 [I-1308] ; value = > 10 nM

// field: Kd; key: "Cc1cc(Nc2cc(N)n3ncc(C(N)=O)c3n2)cc(N2CCCC2)n1" ; value = > 10 nM

// field: Kd; key: "CNc1cc(Nc2cccn(C3CC(F)(F)C3)c2=O)nc2c(C(=O)N[C@@H]3CC[C@H](O)C3)cnn12" ; value = > 10 nM

// field: Kd; key: "CNc1cc(Nc2cccnc2OCCOC)nc2c(C(=O)N[C@H]3C[C@H]3F)cnn12" ; value = < 0.2 nM

These entries and their values trace back to patent US10508120B2.
